Origin of values: ChEMBL document CHEMBL1127541

The molecules listed here are annotated with their pIC50.
target: D(1A) dopamine receptor (Bos taurus)
Sequence (Q95136 whole entry): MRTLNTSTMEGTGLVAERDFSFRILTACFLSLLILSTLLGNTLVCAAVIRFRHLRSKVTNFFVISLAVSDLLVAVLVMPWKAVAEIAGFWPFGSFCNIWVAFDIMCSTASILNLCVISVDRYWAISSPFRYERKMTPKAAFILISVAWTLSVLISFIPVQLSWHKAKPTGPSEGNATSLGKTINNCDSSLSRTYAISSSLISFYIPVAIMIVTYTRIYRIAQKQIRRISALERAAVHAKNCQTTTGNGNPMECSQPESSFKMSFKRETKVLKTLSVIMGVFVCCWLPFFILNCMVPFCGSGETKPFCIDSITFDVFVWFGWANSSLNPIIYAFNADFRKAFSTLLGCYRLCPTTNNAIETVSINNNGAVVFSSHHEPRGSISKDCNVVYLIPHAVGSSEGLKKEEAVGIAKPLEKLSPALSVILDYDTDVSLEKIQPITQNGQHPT
protocol notes: Binding affinity towards dopamine receptor D1 in calf striatum
On this scale, pIC50 is minus log10 of a concentration expressed in M (mol/L).

| molecule | pIC50 |
| --- | --- |
| CCCN(CCCCNS(=O)(=O)c1ccc(C)cc1)C1COc2cccc(OC)c2C1 (single isomer, unassigned; (-)) | 4.70 |

So, CCCN(CCCCN1C(=O)C2CCCC2C1=O)C1COc2cccc(OC)c2C1 (stereo in doubt; 9k) ? Its pIC50 was 4.40

CCCN(CCCCN1C(=O)CC(C)(C)CC1=O)C1COc2cccc(OC)c2C1 (configuration not stated) has a reported pIC50 of 4.10

Record CCCN(CCCCN1CCCCC1)C1COc2cccc(OC)c2C1 (configuration not stated) , field pIC50: 4.00

Notebook: CCCN(CCCCN1CCOCC1)C1COc2cccc(OC)c2C1 (configuration not stated) , pIC50 read as 4.00

Sure, the documented pIC50 for CCCN(CCCCNS(=O)(=O)c1ccc(C)cc1)C1COc2cccc(OC)c2C1 (single isomer, unassigned; (+)) is 4.70

Looking up O=C1c2ccccc2S(=O)(=O)N1CCCCN1CCN(c2ncccn2)CC1 , I found its pIC50 recorded as 4.92

The recorded pIC50 for entry CCCN(CCCCN1C(=O)C2CCCC2C1=O)C1COc2cccc(OC)c2C1 (single isomer, unassigned; (-)) equals 4.52

Kindly note the recorded pIC50 for CCCN(CCNS(=O)(=O)c1ccc(C)cc1)C1COc2cccc(OC)c2C1 (stereo in doubt; (-)-15b) , which is 4.22

Entry CCCN(CCCNS(=O)(=O)c1ccc(C)cc1)C1COc2cccc(OC)c2C1 (configuration not stated) ; pIC50 = 4.70

Entry CCCN(CCCCNC(=O)c1ccc(F)cc1)C1COc2cccc(OC)c2C1 (configuration not stated) — recorded pIC50 = 4.70

Form: molecule = CCCN(CCNS(=O)(=O)c1ccc(C)cc1)C1COc2cccc(OC)c2C1 (single isomer, unassigned; (+)) ; pIC50 = 4.00

Entry under test: CCCN(CCC)C1COc2cccc(OC)c2C1 (stereo in doubt; 4) . Its pIC50 was 4.00

Measured pIC50, CCCN(CCCON1C(=O)CC2(CCCC2)CC1=O)C1COc2cccc(OC)c2C1 (configuration not stated) : 4.70

Reported pIC50 for CCCN(CCCCN1C(=O)CC2(CCCC2)CC1=O)C1COc2cccc(OC)c2C1.O=C(O)C(=O)O (single isomer, unassigned; (+)) was 4.40
